ASSAYED TARGET: HsCK1ε (Homo sapiens)
Sequence (P49674 whole entry): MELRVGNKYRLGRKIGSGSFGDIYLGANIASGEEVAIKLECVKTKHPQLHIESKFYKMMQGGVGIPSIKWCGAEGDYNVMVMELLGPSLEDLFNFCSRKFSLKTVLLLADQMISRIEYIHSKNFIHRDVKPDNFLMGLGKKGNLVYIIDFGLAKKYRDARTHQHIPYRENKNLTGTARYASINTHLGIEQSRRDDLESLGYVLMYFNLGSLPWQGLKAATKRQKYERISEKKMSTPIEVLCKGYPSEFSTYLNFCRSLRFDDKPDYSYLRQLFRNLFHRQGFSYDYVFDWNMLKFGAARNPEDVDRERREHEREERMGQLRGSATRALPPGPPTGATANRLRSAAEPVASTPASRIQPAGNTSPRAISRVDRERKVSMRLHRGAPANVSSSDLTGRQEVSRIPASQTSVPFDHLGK
READOUT TYPE: pIC50
pIC50 (log units): -log10 of the concentration in mol/L.

Request the reported pIC50 associated with `NC(=O)c1c(O)cc(O)c2c1oc1ccc(F)cc12`
6.17

---

ASSAYED TARGET: HsCDK5/p25 (Homo sapiens, UniProt Q00535)
Sequence (Q00535 whole entry): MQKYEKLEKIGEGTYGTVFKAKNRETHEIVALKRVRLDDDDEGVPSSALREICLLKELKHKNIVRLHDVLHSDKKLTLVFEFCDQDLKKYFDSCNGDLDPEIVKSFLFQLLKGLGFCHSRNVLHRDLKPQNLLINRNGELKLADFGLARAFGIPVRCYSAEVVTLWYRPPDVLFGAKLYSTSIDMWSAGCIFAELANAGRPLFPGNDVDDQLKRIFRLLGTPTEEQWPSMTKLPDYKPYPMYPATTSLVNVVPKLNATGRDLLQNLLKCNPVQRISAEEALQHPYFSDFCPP
Sequence (Q15078 99-307 partner limits assumed): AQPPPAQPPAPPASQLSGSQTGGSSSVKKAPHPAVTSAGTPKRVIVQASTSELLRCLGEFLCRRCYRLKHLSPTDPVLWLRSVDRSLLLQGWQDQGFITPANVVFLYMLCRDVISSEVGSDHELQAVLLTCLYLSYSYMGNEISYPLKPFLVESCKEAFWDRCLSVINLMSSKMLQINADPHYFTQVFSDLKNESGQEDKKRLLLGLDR
TEST PROTOCOL: Kinase assay, luminescent ADP-Glo, 10 µM ATP
CONDITION SUMMARY: duplicate, read-out: Kinase Enzymatic IC50 CDK5/p25
READOUT TYPE: IC50

Find the measured IC50: item `NC(=O)c1c(O)cc(O)c2c1oc1cc(O)ccc12` , target or system HsCDK5/p25 (Homo sapiens, UniProt Q00535).
> 10 µM

Field entry: CC(=O)C1=C(O)C=C2Oc3c(C(N)=O)c(O)cc(O)c3[C@]2(C)C1=O [Cerco, Cercosporamide]
5.6 µM

Field entry: `CC(=O)c1ccc2oc3c(C(N)=O)c(O)cc(O)c3c2c1`
> 10 µM

Field entry: `NC(=O)c1c(O)cc(O)c2c1oc1c(N)cccc12`
> 10 µM
